Values were extracted from patent US7432353B2.

subject.of.test: E. coli ARBP (arabinose binding protein) fusion protein CaraFY-PR (Pro-Arg between ECFP and ARBP), SEQ ID NO: 37 (Escherichia coli, UniProt P02924)
assay.comment: Arabinose titration and sugar specificity of FRET sensor CaraFY-PR
property.name: pKd
Numbers only, as −log10 of the molar value.

Q: Any idea what pKd was measured for OC1OC[C@H](O)[C@H](O)[C@H]1O (stereo partly shown) [arabinose] ?
Ans: 6.44

###

subject.of.test: SBP (sucrose binding protein; MBP mutant Asp14Leu, Lys15Phe, Trp62Tyr, Glu111Tyr) fusion protein CSY-LH, SEQ ID NO: 39 (Escherichia coli, UniProt P0AEX9, D40L/E137Y/K41F/W88Y)
assay.comment: Sucrose and maltose titration and sugar specificity of FRET sensor CSY-LH
property.name: pKd
Numbers only, as −log10 of the molar value.

Q: Any idea what pKd was measured for OC[C@H]1O[C@@](CO)(O[C@H]2O[C@H](CO)[C@@H](O)[C@H](O)[C@H]2O)[C@@H](O)[C@@H]1O ?
Ans: 3.79
